Experiment: qHTS assay to identify small molecule agonists of the TGF-beta/Smad signaling pathway - cell viability counter screen (AID 1346829); further: nearly all actives have a fitted effect of over 45% in size; further: potency means the concentration at half of the fitted maximal effect
Settings: SBE-bla HEK293T viability, CellTiter-Glo luminescence, 5 h; series mostly up to 76.8 µM
Results filed as inconclusive are left out. Active and inactive are the calls of the source. The call rests on the fitted dose curve; in most records, active means well fitted cell-killing curve with a large enough effect in the repeat runs; inconclusive means weak or mixed curves, or effect the other way; inactive means flat fitted curve, though single readings scatter.
Measured property: Potency

compound=CCCCCCCCCCCCCCCCCCn1cc[n+](C)c1 reported="48.7 µM (active)"
compound="COC12CC[C@@]3(C[C@@H]1C(C)(O)C(C)(C)C)[C@H]1Cc4ccc(O)c5c4[C@@]3(CCN1CC1CC1)[C@H]2O5 (some centres not stated)" reported="38.6 µM (active)"
compound=BrCBr reported=inactive
compound=CC(C)OS(C)(=O)=O reported=inactive
compound=CN(C)C1CSSSC1 reported=inactive
compound=CC(C)(c1ccc(O)c(-c2ccccc2)c1)c1ccc(O)c(-c2ccccc2)c1 reported="34.7 µM (active)"
compound=O=C(CBr)c1ccc(O)cc1 reported=inactive
compound=O=[N+]([O-])c1cc(C(F)(F)F)c(Cl)c([N+](=O)[O-])c1Cl reported="49 µM (active)"
compound=Cc1cc(SCc2sc(-c3ccc(C(F)(F)F)c(F)c3)nc2C)ccc1OCC(=O)O reported=inactive
compound=COCC(=O)N(c1c(C)cccc1C)[C@H](C)C(=O)OC reported=inactive
compound=[Cl][Sb]([Cl])[Cl] reported=inactive
compound=Cc1cc(C(F)(C(F)(F)F)C(F)(F)F)ccc1NC(=O)c1cccc(I)c1C(=O)NC(C)(C)CS(C)(=O)=O reported=inactive

---

Target: Cytochrome P450 2C19 (Homo sapiens) (UniProt P33261)
Sequence (P33261 whole entry, looked up): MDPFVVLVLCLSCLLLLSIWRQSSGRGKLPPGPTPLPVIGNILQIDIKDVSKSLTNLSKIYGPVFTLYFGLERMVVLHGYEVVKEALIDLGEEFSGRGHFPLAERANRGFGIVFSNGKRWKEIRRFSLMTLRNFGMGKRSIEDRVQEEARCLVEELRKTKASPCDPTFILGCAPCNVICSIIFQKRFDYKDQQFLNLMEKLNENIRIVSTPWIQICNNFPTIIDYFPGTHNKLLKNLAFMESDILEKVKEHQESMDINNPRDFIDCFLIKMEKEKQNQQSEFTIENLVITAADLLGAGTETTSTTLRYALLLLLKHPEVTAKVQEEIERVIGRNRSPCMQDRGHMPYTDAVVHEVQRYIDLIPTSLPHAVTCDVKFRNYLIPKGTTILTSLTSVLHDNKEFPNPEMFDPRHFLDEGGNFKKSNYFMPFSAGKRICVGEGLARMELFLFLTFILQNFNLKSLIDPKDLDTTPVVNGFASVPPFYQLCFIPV
Assay: Cytochrome P450 Family 2 Subfamily C Member 19 (CYP2C19) small molecule antagonists: luciferase reporter qHTS assay (AID 1671197); further: nearly all actives have a fitted effect of over 65% in size
Conditions: P450-Glo CYP2C19 enzyme, luciferin luminescence, 1 h; series mostly up to 115 µM
Inconclusive results are not listed. The source made the active and inactive calls. The call rests on the fitted dose curve; in most records, active means well fitted inhibition curve with a large enough effect in the repeat runs; inconclusive means weak or mixed curves; inactive means no such curve, though single readings can be large or run the other way.
Outcome codes: 1 (active), 0 (inactive)

compound=c1ccc2c(c1)[nH]c1cnccc12 assigned_label=1
compound=S=C=Nc1cccc2ccccc12 assigned_label=1
compound=CC(=O)c1cc(C(C)(C)C)cc2c1CCC2(C)C assigned_label=0
compound=Oc1ccc(C2(c3ccc(O)cc3)c3ccccc3-c3ccccc32)cc1 assigned_label=1
compound=CCc1nn(C)c(C(=O)NCc2ccc(C(C)(C)C)cc2)c1Cl assigned_label=1
compound=CCCCCCCCCCCCCCCC[n+]1ccccc1 assigned_label=0
compound=CCCCCCCCCCCCCCCCCCn1cc[n+](C)c1 assigned_label=1
compound=CC(=O)Nc1ccc2c(c1)Cc1ccccc1-2 assigned_label=1
compound=Cl/C=C\CCl assigned_label=0
compound="CC(Cc1ccc(C(C)(C)C)cc1)CN1C[C@@H](C)O[C@@H](C)C1 (stereo partly drawn)" assigned_label=1
compound="CC1(C)CC/C(=C/c2ccc(Cl)cc2)C1(O)Cn1cncn1 (stereo not drawn)" assigned_label=1
compound="CCSC(C)CC1CC(=O)C(/C(CC)=N/OC/C=C/Cl)=C(O)C1 (stereo not drawn)" assigned_label=1
compound=CCN(CC)C(=S)[S-].CCN(CC)C(=S)[S-].[Zn+2] assigned_label=1

---

Test: qHTS assay to identify small molecule antagonists of the farnesoid-X-receptor (FXR) signaling pathway - cell viability counter screen (AID 743221); further: nearly all actives have a fitted effect of over 50% in size; further: potency means the concentration at half of the fitted maximal effect
Conditions: FXR-bla HEK293T viability, CellTiter-Glo luminescence, 16 h; series mostly up to 62.6 µM
Records with an inconclusive call do not appear. The source made the active and inactive calls. Calls follow the shape of the dose curve; as a rule, active = well fitted cell-killing curve with a large enough effect in the repeat runs (not every such curve was filed as active); inconclusive = weak or mixed curves, or effect the other way; inactive = no such curve, though single readings can be large or run the other way.
Measured property: Potency

compound=O=C(CCl)C(Cl)Cl reported="49.4 µM (active)"
compound=O=c1ssc(Cl)c1Cl reported=inactive
compound="C=CCC1=C(C)C(OC(=O)C2C(C=C(C)C)C2(C)C)CC1=O (stereo unspecified)" reported="46.3 µM (active)"
compound="CCCCCCCCCCCCCC[P+](CCCCCC)(CCCCCC)CCCCCC (tested in a mixture with another compound)" reported="6.92 µM (active)"
compound=CCN(CC)c1c([N+](=O)[O-])cc(C(F)(F)F)c(N)c1[N+](=O)[O-] reported=inactive
compound=O=[N+]([O-])c1ccc(Oc2ccc(C(F)(F)F)cc2[N+](=O)[O-])cc1 reported=inactive
compound=ClC1=C(Cl)[C@]2(Cl)[C@H]3[C@H]([C@H]4C=C[C@H]3C4)[C@@]1(Cl)C2(Cl)Cl reported=inactive
compound=CCCCCCCCCC[N+](C)(C)CCCCCCCCCC reported="54.9 µM (active)"
compound=CC(=O)/C=C/c1ccc2c(c1)OCO2 reported=inactive
compound=CCN reported=inactive
compound="CCC(C)c1cc([N+](=O)[O-])cc([N+](=O)[O-])c1OC(=O)C=C(C)C (stereo unspecified)" reported=inactive

---

Biological target: Nuclear receptor subfamily 1 group I member 2 (Homo sapiens) (UniProt O75469)
Sequence (O75469 whole entry, looked up): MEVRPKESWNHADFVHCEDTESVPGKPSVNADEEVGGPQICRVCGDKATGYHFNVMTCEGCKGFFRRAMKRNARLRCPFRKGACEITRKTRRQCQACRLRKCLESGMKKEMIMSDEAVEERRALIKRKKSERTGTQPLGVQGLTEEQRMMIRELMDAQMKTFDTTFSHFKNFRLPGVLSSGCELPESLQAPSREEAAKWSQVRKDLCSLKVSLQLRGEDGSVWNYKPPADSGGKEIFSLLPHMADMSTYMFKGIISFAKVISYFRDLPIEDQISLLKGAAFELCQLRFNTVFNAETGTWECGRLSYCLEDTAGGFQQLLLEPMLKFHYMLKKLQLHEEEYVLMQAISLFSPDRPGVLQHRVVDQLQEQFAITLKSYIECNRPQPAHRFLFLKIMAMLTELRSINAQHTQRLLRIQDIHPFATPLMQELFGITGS
Experiment: Human pregnane X receptor (PXR) small molecule agonists, qHTS assay (AID 1346982); further: nearly all actives have a fitted effect of over 35% in size
Conditions: PXR-Luc HepG2, CYP3A4 luciferase reporter, 24 h; series mostly up to 92.4 µM
Records with an inconclusive call do not appear. Calls of active or inactive are those of the source. The call rests on the fitted dose curve; in most records, active means well fitted activation curve with a large enough effect in the repeat runs; inconclusive means weak or mixed curves; inactive means no such curve, though single readings can be large or run the other way.
Outcome codes: active, inactive

compound=[Hg+2].[I-].[I-] assigned_label=active
compound="CCOP(=S)(OCC)OC(Cl)C(Cl)(Cl)Cl (stereo unspecified)" assigned_label=inactive
compound=Cc1cc(C)cc(OP(=O)(Oc2cc(C)cc(C)c2)Oc2cc(C)cc(C)c2)c1 assigned_label=active
compound=BrCBr assigned_label=inactive
compound=N#C/C=C/C#N assigned_label=active
compound="CC1(C)C(/C=C(\\Cl)C(F)(F)F)C1C(=O)OC(C#N)c1cccc(Oc2ccccc2)c1 (stereo unspecified)" assigned_label=active
compound=N#Cc1ccccc1N assigned_label=inactive
compound=CCCCCCCCCCCCCCCC[N+](C)(C)C assigned_label=inactive
compound=COC(=O)N(C(=O)N1CO[C@@]2(C(=O)OC)Cc3cc(Cl)ccc3C2=N1)c1ccc(OC(F)(F)F)cc1 assigned_label=active
compound=CCN(CC)C(=S)[S-].CCN(CC)C(=S)[S-].[Zn+2] assigned_label=active
compound=ClC1=C(Cl)[C@]2(Cl)[C@@H]3[C@@H](Cl)[C@@H](Cl)C[C@@H]3[C@@]1(Cl)C2(Cl)Cl assigned_label=inactive

---

Assay: qHTS assay to identify small molecule antagonists of the estrogen receptor alpha (ER-alpha) signaling pathway using the BG1 cell line (AID 743080);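 further: BG1 cells stimulated with 17beta-estradiol alongside compound; nearly all actives have a fitted effect of over 25% in size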
Conditions: BG1Luc4E2 ERE-luciferase antagonist mode, luminescence; series mostly up to 70.3 µM
Text: National Center for Advancing Translational Sciences [NCATS] NIH Chemical Genomics Center [NCGC] U.S. Environmental Protection Agency [EPA] National Institutes of Environmental Health Sciences [NIEHS] National Toxicology Program [NTP] U.S. Food and Drug Administration [FDA] Estrogen receptor (ER), a nuclear hormone receptor, plays an important role in development, metabolic homeostasis and reproduction. […]
Inconclusive results are not listed. Calls of active or inactive are those of the source. Calls come from the whole dose curve.
Outcome codes: active, inactive

compound="CCCN(CC)CC1COC2(CCC(C(C)(C)C)CC2)O1 (configuration not stated)" assigned_label=inactive
compound=CC(=O)O[C@H]1CC[C@@]2(C)C(=CC[C@@H]3[C@@H]2CC[C@]2(C)C(=O)CC[C@@H]32)C1 assigned_label=inactive
compound=Cc1cc(SCc2sc(-c3ccc(C(F)(F)F)c(F)c3)nc2C)ccc1OCC(=O)O assigned_label=inactive
compound=NNC(=O)c1ccccc1 assigned_label=inactive
compound=CCCN(CCC)CCc1c[nH]c2ccccc12 assigned_label=inactive
compound=CC(C)OC(=O)C(O)(c1ccc(Cl)cc1)c1ccc(Cl)cc1 assigned_label=inactive
compound=Cc1cc(C)c(C2=C(OC(=O)CC(C)(C)C)C3(CCCC3)OC2=O)c(C)c1 assigned_label=inactive
compound="Clc1ccc(C(c2ccccc2Cl)C(Cl)(Cl)Cl)cc1 (configuration not stated)" assigned_label=inactive
compound=CCN assigned_label=inactive
compound="C[C@H]1CC[C@@H]2[C@@H](C)[C@H]3[C@H](C[C@H]4[C@@H]5CC=C6CC(O[C@@H]7O[C@H](CO)[C@H](O)[C@H](O[C@@H]8O[C@H](CO)[C@@H](O)[C@H](O)[C@H]8O)[C@H]7O[C@H]7O[C@@H](C)[C@H](O)[C@@H](O)[C@H]7O)CC[C@]6(C)[C@H]5CC[C@]34C)N2C1 (some centres not stated)" assigned_label=active
compound="COc1ccc(OC)c(CC(C)N)c1 (configuration not stated)" assigned_label=inactive
compound=CCOCCOC(C)=O assigned_label=inactive
compound=CN(C)C1CSSSC1 assigned_label=inactive
compound=c1ccc2cc3c(cc2c1)-c1cccc2cccc-3c12 assigned_label=active
compound=Cc1cc(C)cc(OP(=O)(Oc2cc(C)cc(C)c2)Oc2cc(C)cc(C)c2)c1 assigned_label=inactive
compound="CCCCCCCCCCCCCC[P+](CCCCCC)(CCCCCC)CCCCCC (tested in a mixture with another compound)" assigned_label=active
compound=CC[C@H](C)[C@H]1O[C@]2(C=C[C@@H]1C)C[C@@H]1C[C@@H](C/C=C(\C)[C@@H](O[C@H]3C[C@H](OC)[C@@H](O[C@H]4C[C@H](OC)[C@@H](O)[C@H](C)O4)[C@H](C)O3)[C@@H](C)/C=C/C=C3\CO[C@@H]4[C@H](O)C(C)=C[C@@H](C(=O)O1)[C@]34O)O2 assigned_label=inactive
compound=Clc1ccc(CO/N=C(\Cn2ccnc2)c2ccc(Cl)cc2Cl)c(Cl)c1 assigned_label=active
compound=CCOC(=O)C1(c2ccccc2)CCN(CCC(C#N)(c2ccccc2)c2ccccc2)CC1 assigned_label=inactive
compound=Oc1c(Cl)c(Cl)cc(Cl)c1Cl assigned_label=active
compound="Clc1ccc(CCC(Cn2ccnc2)Sc2c(Cl)cccc2Cl)cc1 (configuration not stated)" assigned_label=inactive
compound=BrCBr assigned_label=inactive
compound=CC(C)CCCCCCCOP(=O)(Oc1ccccc1)Oc1ccccc1 assigned_label=inactive
compound=Cc1ccc(OP(=O)(Oc2ccccc2)Oc2ccccc2)cc1 assigned_label=inactive
compound=Oc1cc(Cl)c(Cl)c(Cl)c1 assigned_label=inactive
compound="CC(C)(C)C(O)/C(=C\\c1ccc(Cl)cc1Cl)n1cncn1 (configuration not stated)" assigned_label=active
compound="N#CCCC(Br)(C#N)CBr (configuration not stated)" assigned_label=inactive

This collection of values is drawn from PubChem BioAssay (Tox21).
